Source of measurements: patent US20250188079A1

Target desc: CBP (Homo sapiens (Human))
Measurement notes: HTRF biochemical assay for CBP activity (TR-FRET, bromodomain)
Format: binding
Run parameters: geometric mean, 10-point 3-fold dilution 33 μM to 1.7 nM, read-out: BROMO IC50 TRF TB CBP (μM gmean)
Property name: IC50

In [3]: df
Out[3]:
                                   compound          measured
0  COC(=O)N1CCc2ccc3c(nc(C4CCCCC4)n3C[C@H](C(=O)O)c3cc(F)c(C)cc3OC)c2C1 (single isomer, unassigned)  0.001 to 0.01 µM
1  COC(=O)N1CCc2ccc3c(nc(C45CC(C4)C5)n3C[C@H](C(=O)O)c3ccccc3)c2C1  0.001 to 0.01 µM
2  COC(=O)N1CCc2ccc3c(nc(C4CCCCC4)n3C[C@H](C(=O)O)c3ccccc3)c2C1  0.001 to 0.01 µM
3  COC(=O)N1CCc2ccc3c(nc(C4CCCCC4)n3C[C@@](C)(C(=O)O)c3ccccc3)c2C1  0.001 to 0.01 µM
4  COC(=O)N1CCc2ccc3c(nc([C@H]4CC[C@](C)(C(=O)O)CC4)n3[C@H](C)Cc3ccccc3)c2C1       0.1 to 1 µM
5  COC(=O)N1CCc2ccc3c(nc([C@H]4CC[C@H](C(=O)O)CC4)n3[C@H](C)Cc3ccccc3Cl)c2C1 [Compound 297]       0.1 to 1 µM
6  COC(=O)N1CCc2ccc3c(nc([C@H]4CC[C@H](C(=O)O)CC4)n3[C@H](C)C[C@]3(C)CC[C@@H](OC)CC3)c2C1    0.01 to 0.1 µM
7  COC(=O)N1CCc2ccc3c(nc(N4CCC(C(=O)O)CC4)n3[C@@H](C)Cc3ccccc3C)c2C1  0.001 to 0.01 µM

----------
Measured IC50, listed per entry for reference.
Target desc: CBP (Homo sapiens (Human), UniProt Q92793)
Sequence (Q92793 1085-1192): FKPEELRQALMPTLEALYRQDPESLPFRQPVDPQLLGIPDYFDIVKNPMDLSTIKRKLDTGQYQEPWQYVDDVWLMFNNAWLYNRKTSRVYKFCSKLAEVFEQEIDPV
Measurement notes: HTRF biochemical assay for CBP activity (TR-FRET, bromodomain)
Assay type: binding
Run parameters: geometric mean, 10-point 3-fold dilution 33 μM to 1.7 nM, read-out: BROMO IC50 TRF TB CBP (μM gmean)
Property name: IC50

>>> df
                                    molecule  property_name          measured
 0  COC(=O)N1CCc2ccc3c(nc(C4CCCCC4)n3C[C@@H](C(=O)O)c3cc(F)ccc3OC)c2C1 (single isomer, unassigned) [Compound 11]           IC50  0.001 to 0.01 µM
 1  COC(=O)N1CCc2ccc3c(nc([C@@H]4CCC[C@@H](C(=O)O)C4)n3[C@@H](C)Cc3ccccc3Cl)c2C1 (single isomer, unassigned)           IC50  0.001 to 0.01 µM
 2  COC(=O)N1CCc2ccc3c(nc(N4CCC(C(=O)O)CC4)n3[C@@H](C)Cc3ccc(F)c(F)c3)c2C1 (single isomer, unassigned)           IC50  0.001 to 0.01 µM
 3  COC(=O)N1CCc2ccc3c(nc(C4CCN(C(=O)CO)CC4)n3[C@@H](C)Cc3ccccc3)c2C1           IC50  0.001 to 0.01 µM
 4  COC(=O)N1CCc2ccc3c(nc(C4CCCCC4)n3C[C@H](C(=O)O)c3cc(F)c(Cl)cc3OC)c2C1 (single isomer, unassigned)           IC50    0.01 to 0.1 µM
 5  COC(=O)N1CCc2ccc3c(nc(N4CCC[C@@H](C(=O)O)C4)n3C[C@@H](C)c3ccccc3)c2C1           IC50  0.001 to 0.01 µM
 6  COC(=O)N1CCc2ccc3c(nc(C4CCCCC4)n3[C@@H](C)C[C@H]3CCCC[C@H]3C(=O)O)c2C1           IC50    0.01 to 0.1 µM
 7  COC(=O)N1CCc2ccc3c(nc(C4CCCCC4)n3C[C@@H](C(=O)NS(C)(=O)=O)c3ccccc3)c2C1 (single isomer, unassigned)           IC50  0.001 to 0.01 µM
 8  COC(=O)N1CCc2ccc3c(nc(-c4ccc(C(=O)O)cc4)n3[C@@H](C)Cc3ccccc3)c2C1           IC50  0.001 to 0.01 µM
 9  COC(=O)N1CCc2ccc3c(nc(C4CCCC4)n3C[C@H](C(=O)O)c3ccccc3)c2C1           IC50  0.001 to 0.01 µM
10  COC(=O)N1CCc2ccc3c(nc([C@H]4CC[C@H](C(=O)O)CC4)n3[C@H](C)C[C@H]3CC[C@@H](OC)CC3)c2C1           IC50  0.001 to 0.01 µM
11  COC(=O)N1CCc2ccc3c(nc(-c4cccc(CC(=O)O)c4)n3[C@@H](C)Cc3cc(F)cc(F)c3)c2C1           IC50  0.001 to 0.01 µM
12  COC(=O)N1CCc2ccc3c(nc(N4CCC(C(=O)O)CC4)n3[C@H](C)Cc3cc(F)cc(OC)c3)c2C1 (single isomer, unassigned)           IC50  0.001 to 0.01 µM
13  COC(=O)N1CCc2ccc3c(nc([C@@H]4CCC[C@@H](C(=O)O)C4)n3[C@@H](C)Cc3ccc(F)c(F)c3)c2C1           IC50  0.001 to 0.01 µM
14  COC(=O)N1CCc2ccc3c(nc([C@H]4CC[C@H](C(=O)O)CC4)n3[C@@H](C)C[C@H]3CCCCO3)c2C1           IC50  0.001 to 0.01 µM
15  COC(=O)N1CCc2ccc3c(nc([C@H]4CC[C@H](C(=O)O)CC4)n3[C@@H](C)C[C@H]3CC[C@H](OC)CC3)c2C1           IC50    0.01 to 0.1 µM
16  COC(=O)N1CCc2cc(C(=O)O)c3c(nc(C4CCCCC4)n3CCc3ccccc3)c2C1           IC50    0.01 to 0.1 µM
17  COC(=O)N1CCc2ccc3c(nc(C4CCCCC4)n3CC[C@H]3CC[C@H](C(=O)O)CC3)c2C1           IC50    0.01 to 0.1 µM
18  COC(=O)N1CCc2ccc3c(nc([C@H]4CC[C@H](C(=O)O)CC4)n3[C@@H](C)Cc3ccc4c(c3)CCO4)c2C1           IC50  0.001 to 0.01 µM

----------
Target desc: CBP (Homo sapiens (Human), UniProt Q92793)
Measurement notes: HTRF biochemical assay for CBP activity (TR-FRET, bromodomain)
Type: binding
Run parameters: geometric mean, 10-point 3-fold dilution 33 μM to 1.7 nM, read-out: BROMO IC50 TRF TB CBP (μM gmean)
Measured IC50, listed per entry for reference.
Property name: IC50

                                    compound          measured
 0  COC(=O)N1CCc2ccc3c(nc([C@H]4CC[C@H](C(=O)O)CC4)n3[C@@H](C)Cc3c(C)cccc3C)c2C1  0.001 to 0.01 µM
 1  COC(=O)N1CCc2ccc3c(nc([C@H]4CC[C@H](C(=O)O)CC4)n3[C@@H](C)C(F)(F)c3ccccc3)c2C1       0.1 to 1 µM
 2  COC(=O)N1CCc2ccc3c(nc(C4CCCC(C(=O)O)C4)n3C[C@H](C)c3ccc(F)c(F)c3)c2C1 (stereo in doubt)  0.001 to 0.01 µM
 3  COC(=O)N1CCc2ccc3c(nc([C@H]4CC[C@H](C(=O)O)CC4)n3[C@H](C)CC3CCCCC3)c2C1  0.001 to 0.01 µM
 4  COC[C@@H](Cc1ccccc1)n1c2ccc3c(c2nc1[C@H]1CC[C@H](C(=O)O)CC1)CN(C(=O)OC)CC3  0.001 to 0.01 µM
 5  COC(=O)N1CCc2ccc3c(nc([C@H]4CC[C@H](C(=O)O)CC4)n3[C@@H](C)C[C@@H]3CCCOC3)c2C1    0.01 to 0.1 µM
 6  COC(=O)N1CCc2ccc3c(nc(C4CCCCC4)n3CC[C@@H]3CCC[C@@H](C(=O)O)C3)c2C1  0.001 to 0.01 µM
 7  COC(=O)N1CCc2c(Cl)cc3c(nc([C@H]4CC[C@H](C(=O)O)CC4)n3[C@H](C)Cc3ccccc3)c2C1       0.1 to 1 µM
 8  COC(=O)N1CCc2ccc3c(nc(N4CCN(C(C)=O)CC4)n3[C@@H](C)Cc3cccnc3)c2C1    0.01 to 0.1 µM
 9  COC(=O)N1CCc2ccc3c(nc([C@H]4CC[C@@H](S(N)(=O)=O)CC4)n3[C@@H](C)Cc3ccccc3)c2C1  0.001 to 0.01 µM
10  COC(=O)N1CCc2ccc3c(nc([C@H]4CCC[C@H](C(=O)O)C4)n3Cc3ccc(OC(F)F)cc3)c2C1    0.01 to 0.1 µM
